The reported numbers originate from paper PMC4036204.

Biological target: T1, Metnase catalytic domain WT (UniProt Q53H47 446-684)
T1 sequence: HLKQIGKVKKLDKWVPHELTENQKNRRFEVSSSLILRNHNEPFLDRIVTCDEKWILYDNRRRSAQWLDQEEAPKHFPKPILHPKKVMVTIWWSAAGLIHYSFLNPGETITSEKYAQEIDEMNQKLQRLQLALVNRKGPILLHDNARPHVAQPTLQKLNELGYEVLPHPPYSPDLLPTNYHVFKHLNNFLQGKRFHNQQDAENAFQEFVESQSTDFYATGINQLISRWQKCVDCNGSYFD
Assay: fluorescence polarization; FP: 50 mM HEPES pH 7.0, 150 mM NaCl, 10 nM probe, temperature not stated; EMSA: 50 mM HEPES-KOH pH 7.8, 50 mM NaCl, 0.2 ug poly(dI:dC), 0.2 ug/ul BSA, room temperature 15 min
Conditions: protein: recombinant; tags: N-terminal His tag removed by thrombin; label: 5' rhodamine; single strand
PROPERTY_LABEL: pKd
Remember, pKd is on a log scale: it is -log10 of the molar concentration.

## Task Please look up its pKd: AACCGCAATTACTTTTGCACCAACC (ssDNA, 5' C6-amino linker) [25-nt TIR ssDNA]
## Result 6.53
